Source listed as the Immune Epitope Database (IEDB).

experimental_system: HLA-B*07:02
assay_remarks: IEDB peptide-MHC binding, purified MHC/competitive/fluorescence; filed as Kd, often an IC50 or EC50 that approximates it; bounds were set here for any values at or beyond the usual limits of such assays
assay_setup: source organism: Influenza A virus (A/Memphis/1/1978(H1N1))
measure_name: Kd

`DPLVVAASI` has a reported Kd of ≥ 20 µM

* * *

experimental_system: HLA-A*03:01
assay_remarks: IEDB peptide-MHC binding, purified MHC/competitive/radioactivity; filed as Kd, often an IC50 or EC50 that approximates it; bounds were set here for any values at or beyond the usual limits of such assays
assay_setup: source organism: Vaccinia virus WR
I'd appreciate it if you could supply Kd values for the items below.

Some sequences with recorded Kd:
| seq_string | experimental_system | Kd |
| --- | --- | --- |
| DTIVSRSSR | HLA-A*03:01 | ≥ 78 µM |
| IFMRDWNSKY | HLA-A*03:01 | ≥ 33.3 µM |
| YIAVANCVR | HLA-A*03:01 | ≥ 78 µM |
| KSQAKKPEVR | HLA-A*03:01 | ≥ 22 µM |
| KIIETYLGR | HLA-A*03:01 | ≥ 78 µM |

Hi! Can you tell me Kd for each of these sequences?
1. KFRPGSLIY
2. NSTTDAEACY
3. FSGKSTELIR
4. FFTELENKK

1. ≥ 21.3 µM
2. ≥ 70.1 µM
3. ≥ 38.1 µM
4. ≥ 78 µM
